- System: UACC-62 melanoma
- protocol.description: NCI-60 one-dose screen, 48 h
- run.parameters: 10 µM unless noted
- Experimental: Growth inhibition of the UACC-62 human tumor cell line is measured as a screen for anti-cancer activity. Cells are grown in 96 well plates and exposed to the test compound for 48 hours. Compounds are tested at a single concentration, which is 10^-5 M for most compounds. The reported endpoint is percent growth (GI% or GIPRCNT), where numbers from 0 - 100% represent growth inhibition, and numbers from -100% - 0 represent cell death. For example, a value of 40 represents 60% growth inhibition. […]
The panel holds about 83,000 compounds, 20% with a hit somewhere; the sample as a whole holds those more often. The source made the active and inactive calls. The calls were made as follows: active = growth percent below 10; inactive = the rest.
Possible outcomes: active, inactive

| compound | system | cat |
| --- | --- | --- |
| COc1ccc(OCC(CO)N2CCN(c3ccccc3)CC2)cc1 (stereo not given) | UACC-62 melanoma | inactive |
| COc1ccc2nc(-c3cc(-c4cc(OC)c(OC)c(OC)c4)n[nH]3)[nH]c2c1 | UACC-62 melanoma | active |
| Cc1ccc(-c2ccc(Nc3ccccc3)nn2)cc1S(N)(=O)=O | UACC-62 melanoma | inactive |
| COc1cc(/C=N/NC(=S)NNC(=S)NC2CCCCC2)cc(OC)c1OC | UACC-62 melanoma | inactive |
| Cn1cc(-c2csc(-c3c[nH]c4ccc(F)cc34)n2)c2cccnc21 | UACC-62 melanoma | inactive |
| Cc1ccc(Cc2cnc(NC(=O)/C=C/c3cccc(C)c3)s2)cc1 | UACC-62 melanoma | inactive |
| Cc1ccc2[nH]cc(-c3nc(-c4cn(C)c5ncccc45)cs3)c2c1 | UACC-62 melanoma | inactive |
| CC(CNc1nc(Nc2ccc(Cl)c(Cl)c2)nc(C(Cl)(Cl)Cl)n1)N(C)C (stereo not given) | UACC-62 melanoma | active |
| COc1ccc(NC(=O)c2ccc3c(c2)nc(-c2cc4ccccc4[nH]c2=O)n3-c2cc(C(C)(C)C)[nH]n2)cc1 | UACC-62 melanoma | inactive |
| COc1cc(C(=O)/C=C/c2cc(-c3ccc4c(c3)OCO4)n[nH]2)cc(OC)c1OC | UACC-62 melanoma | inactive |
| Nc1ccc(Br)cn1 | UACC-62 melanoma | inactive |
| COc1ccc2c(c1)C(Br)=C(CCO)C2c1ccccc1 (stereo not given) | UACC-62 melanoma | inactive |
| CCN1CCN(C(=O)[C@]23CC[C@@H](C)[C@H](C)[C@H]2C2=CC[C@@H]4[C@@]5(C)C/C(=C/c6cccc(OC)c6OC)C(=O)C(C)(C)[C@@H]5CC[C@@]4(C)[C@]2(C)CC3)CC1 | UACC-62 melanoma | inactive |
| Nc1c(C(=O)Nc2cccc(Cl)c2)sc2ncc(Cl)cc12 | UACC-62 melanoma | inactive |
| Cc1ccc(Sc2sc(-c3ccccc3)nc2[P+](c2ccccc2)(c2ccccc2)c2ccccc2)cc1 | UACC-62 melanoma | active |
| O=C1CN(c2ccccc2)C(=O)C1C(=O)Nc1ccc(Cl)c(Cl)c1 (stereo not given) | UACC-62 melanoma | active |
| CC1c2ccccc2N(S(=O)(=O)c2ccccc2)C1C (stereo not given) | UACC-62 melanoma | inactive |
| COc1ccc(-c2cc(=O)oc3ccc(Cl)cc23)cc1F | UACC-62 melanoma | inactive |
| C=C(C)[C@@H]1CC[C@]2(/C=N/Nc3ccncc3)CC[C@]3(C)[C@H](CC[C@@H]4[C@@]5(C)CCCNC(C)(C)[C@@H]5CC[C@]43C)[C@@H]12 | UACC-62 melanoma | inactive |
| COc1ccc(-c2cc(/C=C/C(=O)c3ccc(OC)c(OC)c3)[nH]n2)cc1 | UACC-62 melanoma | inactive |
